# subjectOfTest: Ba/F3 cells with EGFR Δ19del/T790M/C797S mutation gene stably overexpressed (Homo sapiens, UniProt P00533, T790M/C797S, cells depend on it, form not given)
# Sequence (P00533 with tags, fused parts or gaps DEL746-750/T790M/C797S, form open): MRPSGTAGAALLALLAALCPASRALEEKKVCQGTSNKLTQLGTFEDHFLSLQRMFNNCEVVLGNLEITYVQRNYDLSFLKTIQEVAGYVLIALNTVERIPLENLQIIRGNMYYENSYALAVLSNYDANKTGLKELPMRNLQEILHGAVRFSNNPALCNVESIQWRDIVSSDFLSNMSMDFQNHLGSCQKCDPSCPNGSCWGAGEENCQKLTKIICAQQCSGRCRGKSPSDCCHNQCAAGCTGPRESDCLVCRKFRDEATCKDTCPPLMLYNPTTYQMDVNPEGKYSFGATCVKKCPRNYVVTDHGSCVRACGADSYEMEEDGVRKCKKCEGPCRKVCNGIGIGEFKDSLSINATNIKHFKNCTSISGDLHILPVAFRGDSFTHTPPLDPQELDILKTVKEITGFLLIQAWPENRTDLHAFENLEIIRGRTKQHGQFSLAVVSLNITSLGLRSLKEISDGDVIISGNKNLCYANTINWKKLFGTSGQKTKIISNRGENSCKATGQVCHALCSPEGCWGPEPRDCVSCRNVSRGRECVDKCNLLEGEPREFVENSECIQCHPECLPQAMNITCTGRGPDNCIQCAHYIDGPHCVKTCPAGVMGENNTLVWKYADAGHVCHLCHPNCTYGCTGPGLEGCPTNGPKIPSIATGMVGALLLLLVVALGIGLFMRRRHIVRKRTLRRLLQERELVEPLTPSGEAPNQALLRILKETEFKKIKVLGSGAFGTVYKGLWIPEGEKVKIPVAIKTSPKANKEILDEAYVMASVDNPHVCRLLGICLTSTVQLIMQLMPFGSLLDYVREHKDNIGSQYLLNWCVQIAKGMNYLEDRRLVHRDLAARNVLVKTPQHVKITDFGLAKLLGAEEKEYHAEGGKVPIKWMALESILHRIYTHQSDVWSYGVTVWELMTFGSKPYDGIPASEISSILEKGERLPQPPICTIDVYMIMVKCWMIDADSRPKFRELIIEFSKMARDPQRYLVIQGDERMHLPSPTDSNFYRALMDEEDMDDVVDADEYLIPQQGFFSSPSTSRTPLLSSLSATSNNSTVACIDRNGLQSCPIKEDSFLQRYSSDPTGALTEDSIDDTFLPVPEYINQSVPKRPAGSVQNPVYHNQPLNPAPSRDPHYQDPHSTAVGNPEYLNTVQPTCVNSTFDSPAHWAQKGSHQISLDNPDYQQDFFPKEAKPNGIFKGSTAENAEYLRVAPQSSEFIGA
# assayOverview: Ba/F3-Δ19del/T790M/C797S cell proliferation assay (CellTiter Glo, 72 hours)
# Type: cell-based
# conditionSet: Table 2, read-out: EGFR Δ19del/T790M/C797S IC50
The threshold is 20 nM. Values of GI50 beneath it are tagged YES; values meeting or exceeding it are tagged NO.

compound: CCc1cc(Nc2ncc(Cl)c(Nc3ccc(-c4ncc(F)cn4)cc3P(C)(C)=O)n2)c(OC)cc1N1CCC(N2CCN(C)CC2)CC1 [Compound 18]
group: YES
--
compound: C#Cc1cnc(-c2ccc(Nc3nc(Nc4cc(C)c(N5CCC(N6CCN(C)CC6)CC5)cc4OC)ncc3Br)c(P(C)(C)=O)c2)cn1 [Compound K-011]
group: YES
--
compound: CCc1cc(Nc2ncc(Br)c(Nc3ccc(-c4cccc(C#N)c4)cc3P(C)(C)=O)n2)c(OC)cc1N1CCC(N2CCN(C)CC2)CC1 [Compound 5]
group: YES
--
compound: COc1cc(Nc2ncc(Br)c(Nc3ccc(-c4cnn(C)n4)c(F)c3P(C)(C)=O)n2)c(C)cc1N1CC(C)OC(C)C1 (stereo not shown) [Compound K-037]
group: YES
--
compound: COc1cnn(-c2ccc(Nc3nc(Nc4cc(-c5cnn(C)c5)c(N5CCN(C6CCCC6)CC5)cc4OC)ncc3Br)c(P(C)(C)=O)c2)c1 [Compound K-081]
group: YES
--
compound: COc1cc(N2CCC(N3CCN(C)CC3)CC2)c(C)cc1Nc1ncc(Br)c(Nc2ccc(-c3cnn(C)n3)cc2P(C)(C)=O)n1 [Compound K-008]
group: YES
--
compound: CCc1cc(Nc2ncc(Br)c(Nc3ccc(-c4cccc5c4COC5)cc3P(C)(C)=O)n2)c(OC)cc1N1CCC(N2CCN(C)CC2)CC1 [Compound 11]
group: YES
--
compound: CCc1cc(Nc2ncc(Br)c(Nc3ccc(-c4ccccc4C#N)cc3P(C)(C)=O)n2)c(OC)cc1N1CCC(N2CCN(C)CC2)CC1 [Compound 51]
group: NO
--
compound: C#Cc1cncc(-c2ccc(Nc3nc(Nc4cc(CC)c(N5CCC(N6CCN(C)CC6)CC5)cc4OC)ncc3Br)c(P(C)(C)=O)c2)n1 [Compound K-013]
group: YES
--
compound: CCc1cc(Nc2ncc(Br)c(Nc3ccc(-c4cnc(C)c(C)n4)cc3P(C)(C)=O)n2)c(OC)cc1N1CCC(N2CCN(C)CC2)CC1 [Compound 81]
group: YES
--
compound: CCc1cc(Nc2ncc(Br)c(Nc3ccc(-c4cn(C)c5ncccc45)cc3P(C)(C)=O)n2)c(OC)cc1N1CCC(N2CCN(C)CC2)CC1 [Compound 46]
group: NO
--
compound: CCc1cc(Nc2ncc(Br)c(Nc3ccc(-c4cscn4)cc3P(C)(C)=O)n2)c(OC)cc1N1CCC(N2CCN(C)CC2)CC1 [Compound 28]
group: YES

###

# subjectOfTest: Ba/F3 cells with EGFR Δ19del/T790M/C797S mutation gene stably overexpressed (Homo sapiens, UniProt P00533, T790M/C797S, cells depend on it, form not given)
# assayOverview: Ba/F3-Δ19del/T790M/C797S cell proliferation assay (CellTiter Glo, 72 hours)
# Assay type: cell-based
# conditionSet: Table 2, read-out: EGFR Δ19del/T790M/C797S IC50
The label 1 is reserved for GI50 strictly under 0.005 µM; -1 covers values equal to or above it.

molecule: CCc1cc(Nc2ncc(Br)c(Nc3ccc(-n4cc(C)cn4)cc3P(C)(C)=O)n2)c(OC)cc1N1CCC(N2CCN(C)CC2)CC1 [Compound K-069]
group: -1
--
molecule: COc1cc(Nc2ncc(Br)c(Nc3ccc(-c4cnn(C)n4)cc3P(C)(C)=O)n2)c(C)cc1N1CCC(N2CCOCC2)CC1
group: 1
--
molecule: COc1cc(N2CCOCC2)c(C#N)cc1Nc1ncc(Br)c(Nc2ccc(-c3nccs3)cc2P(C)(C)=O)n1
group: -1
--
molecule: CCc1cc(Nc2ncc(Br)c(Nc3ccc(-c4ccc(C#N)cc4)cc3P(C)(C)=O)n2)c(OC)cc1N1CCC(N2CCN(C)CC2)CC1
group: -1
--
molecule: CCc1cc(Nc2ncc(Br)c(Nc3ccc(-c4ccc(C)cn4)cc3P(C)(C)=O)n2)c(OC)cc1N1CCC(N2CCN(C)CC2)CC1 [Compound K-071]
group: -1
--
molecule: CCc1cc(Nc2ncc(Br)c(Nc3ccc(-c4cnn(C)n4)c(F)c3P(C)(C)=O)n2)c(OC)cc1N1CCC(N2CCN(C)CC2)CC1 [Compound K-007]
group: 1
--
molecule: CCOc1cc(Nc2ncc(Br)c(Nc3ccc(-c4ccc(C)cn4)cc3P(C)(C)=O)n2)c(C)cc1N1CCOCC1
group: -1
--
molecule: COc1cnn(-c2ccc(Nc3nc(Nc4cc(OC)c(N5CCC(O)CC5)cc4C)ncc3Br)c(P(C)(C)=O)c2)c1
group: -1
--
molecule: CCc1cc(Nc2ncc(Br)c(Nc3ccc(-c4nn(C)c5ncccc45)cc3P(C)(C)=O)n2)c(OC)cc1N1CCC(N(C)C)CC1
group: -1
--
molecule: COc1cc(N2CCC(N3CCCCC3)CC2)c(-c2cnn(C)c2)cc1Nc1ncc(Br)c(Nc2ccc(-c3ccccc3)cc2P(C)(C)=O)n1
group: 1
--
molecule: COc1cc(Nc2ncc(Br)c(Nc3ccc(-c4ccc(C)cn4)cc3P(C)(C)=O)n2)c(C)cc1N1CCOCC1
group: 1
--
molecule: CCc1cc(Nc2ncc(Cl)c(Nc3ccc(-c4cnn5cnccc45)cc3P(C)(C)=O)n2)c(OC)cc1N1CCC(N2CCN(C)CC2)CC1
group: -1
--
molecule: COc1cc(Nc2ncc(Br)c(Nc3ccc(-c4cnc(C5CC5)cn4)cc3P(C)(C)=O)n2)c(C)cc1N1CCOCC1
group: -1

Attribution: patent US20220402948A1
